The reported measurements were obtained from ChEMBL document CHEMBL2146407.

system: SK-HEP1; test: Inhibition of CIP2A expression in human SKHEP1 cells at 20 uM after 24 hrs by Western blot analysis; format: functional, cell-based
Activity calls are given as the source filed them. No cut-off for these calls is given here.

- compoundStructure: "C#Cc1cccc(Nc2ccnc(Nc3cccc(C#C)c3)n2)c1"
  inhibition: "Active"
- compoundStructure: "Clc1nccc(Nc2ccc(Oc3ccccc3)cc2)n1"
  inhibition: "inactive"
- compoundStructure: "C#Cc1cccc(Nc2nc(Nc3ccc(Cl)c(C(F)(F)F)c3)nc3cc(OC)c(OC)cc23)c1"
  inhibition: "Active"
- compoundStructure: "C#Cc1cccc(Nc2nc(Nc3cccc(Cl)c3)nc3cc(OC)c(OC)cc23)c1"
  inhibition: "Active"
- compoundStructure: "C#Cc1cccc(Nc2nc(Nc3cc(C)ccc3F)nc3cc(OC)c(OC)cc23)c1"
  inhibition: "Active"
- compoundStructure: "FC(F)(F)c1cc(Nc2ccnc(Cl)n2)ccc1Cl"
  inhibition: "inactive"
- compoundStructure: "Clc1cccc(Nc2ccnc(Cl)n2)c1"
  inhibition: "inactive"
- compoundStructure: "C#Cc1cccc(Nc2nc(Nc3ccc(Oc4ccccc4)cc3)nc3cc(OC)c(OC)cc23)c1"
  inhibition: "Active"
- compoundStructure: "C#Cc1cccc(Nc2nc(Nc3ccc(Oc4ccc(C#N)cc4)cc3)nc3cc(OC)c(OC)cc23)c1"
  inhibition: "Active"
- compoundStructure: "C#Cc1cccc(Nc2ccnc(Cl)n2)c1"
  inhibition: "inactive"
- compoundStructure: "Clc1nccc(NCc2ccccc2)n1"
  inhibition: "inactive"

* * *

test system: SK-HEP1; assay: Inhibition of CIP2A expression in human SKHEP1 cells at 20 uM after 24 hrs by Western blot analysis; format: functional, cell-based
Active and inactive are the calls of the source. The rule behind the calls is not given here.
assayMetric: inhibition

- compoundStructure: "FC(F)(F)c1cc(Nc2ccnc(Nc3ccc(Cl)c(C(F)(F)F)c3)n2)ccc1Cl"
  targetDesc: "SK-HEP1"
  assayMetric: "inhibition"
  recordedValue: "Active"
- compoundStructure: "C#Cc1cccc(Nc2nc(Nc3cccc(Oc4ccc(C#N)cc4)c3)nc3cc(OC)c(OC)cc23)c1"
  targetDesc: "SK-HEP1"
  assayMetric: "inhibition"
  recordedValue: "Active"
- compoundStructure: "C#Cc1cccc(Nc2nc(NCc3ccccc3)nc3cc(OC)c(OC)cc23)c1"
  targetDesc: "SK-HEP1"
  assayMetric: "inhibition"
  recordedValue: "Active"

* * *

compounds and their reported IC50
system: SK-HEP1; assay: Cytotoxicity against human SKHEP1 cells assessed as cell death after 48 hrs by MTT assay; assay type: functional, cell-based; conditions: SK-HEP1, 48 h

- compoundStructure: "COc1cc2nc(Cl)nc(Nc3ccc(Cl)c(C(F)(F)F)c3)c2cc1OC"
  targetDesc: "SK-HEP1"
  censoringOperator: "="
  IC50 / µM: 8.8
- compoundStructure: "COc1cc2nc(Cl)nc(Nc3ccc(O)c(C)c3)c2cc1OC"
  targetDesc: "SK-HEP1"
  censoringOperator: ">"
  IC50 / µM: 40
- compoundStructure: "FC(F)(F)c1cc(Nc2ccnc(Cl)n2)ccc1Cl"
  targetDesc: "SK-HEP1"
  censoringOperator: ">"
  IC50 / µM: 40
- compoundStructure: "COc1cc2nc(Cl)nc(NCc3ccccc3)c2cc1OC"
  targetDesc: "SK-HEP1"
  censoringOperator: "="
  IC50 / µM: 19.8
- compoundStructure: "FC(F)(F)c1cc(Nc2ccnc(Nc3ccc(Cl)c(C(F)(F)F)c3)n2)ccc1Cl"
  targetDesc: "SK-HEP1"
  censoringOperator: "="
  IC50 / µM: 13.8
- compoundStructure: "Clc1cccc(Nc2ccnc(Cl)n2)c1"
  targetDesc: "SK-HEP1"
  censoringOperator: ">"
  IC50 / µM: 40
- compoundStructure: "COc1cc2nc(Cl)nc(Nc3cccc(Cl)c3)c2cc1OC"
  targetDesc: "SK-HEP1"
  censoringOperator: "="
  IC50 / µM: 16.5
- compoundStructure: "COc1cc2nc(Cl)nc(Nc3cc(C)ccc3F)c2cc1OC"
  targetDesc: "SK-HEP1"
  censoringOperator: ">"
  IC50 / µM: 40
- compoundStructure: "COc1cc2nc(Cl)nc(Nc3ccc(Oc4ccccc4)cc3)c2cc1OC"
  targetDesc: "SK-HEP1"
  censoringOperator: "="
  IC50 / µM: 15.3
- compoundStructure: "COc1cc2nc(Cl)nc(Nc3cccc(O)c3)c2cc1OC"
  targetDesc: "SK-HEP1"
  censoringOperator: ">"
  IC50 / µM: 40
- compoundStructure: "COc1cc2nc(Cl)nc(Nc3cccc(Oc4ccc(C#N)cc4)c3)c2cc1OC"
  targetDesc: "SK-HEP1"
  censoringOperator: ">"
  IC50 / µM: 40
- compoundStructure: "C#Cc1cccc(N(C)c2nc(Cl)nc3cc(OC)c(OC)cc23)c1"
  targetDesc: "SK-HEP1"
  censoringOperator: "="
  IC50 / µM: 12.3
- compoundStructure: "Clc1nccc(Nc2ccc(Oc3ccccc3)cc2)n1"
  targetDesc: "SK-HEP1"
  censoringOperator: ">"
  IC50 / µM: 40
- compoundStructure: "C#Cc1cccc(Nc2ccnc(Cl)n2)c1"
  targetDesc: "SK-HEP1"
  censoringOperator: ">"
  IC50 / µM: 40
- compoundStructure: "C#Cc1cccc(Nc2ccnc(Nc3cccc(C#C)c3)n2)c1"
  targetDesc: "SK-HEP1"
  censoringOperator: "="
  IC50 / µM: 3.7
- compoundStructure: "Clc1nccc(NCc2ccccc2)n1"
  targetDesc: "SK-HEP1"
  censoringOperator: ">"
  IC50 / µM: 40
